Biological target: Focal Adhesion Kinase (full-length Flag-tagged human FAK) (Homo sapiens, UniProt Q05397)
Construct: a purified recombinant full-length Flag-tagged human FAK protein; Flag; made in house; host or cells: baculovirus infected insect cells
Sequence (Q05397 whole entry): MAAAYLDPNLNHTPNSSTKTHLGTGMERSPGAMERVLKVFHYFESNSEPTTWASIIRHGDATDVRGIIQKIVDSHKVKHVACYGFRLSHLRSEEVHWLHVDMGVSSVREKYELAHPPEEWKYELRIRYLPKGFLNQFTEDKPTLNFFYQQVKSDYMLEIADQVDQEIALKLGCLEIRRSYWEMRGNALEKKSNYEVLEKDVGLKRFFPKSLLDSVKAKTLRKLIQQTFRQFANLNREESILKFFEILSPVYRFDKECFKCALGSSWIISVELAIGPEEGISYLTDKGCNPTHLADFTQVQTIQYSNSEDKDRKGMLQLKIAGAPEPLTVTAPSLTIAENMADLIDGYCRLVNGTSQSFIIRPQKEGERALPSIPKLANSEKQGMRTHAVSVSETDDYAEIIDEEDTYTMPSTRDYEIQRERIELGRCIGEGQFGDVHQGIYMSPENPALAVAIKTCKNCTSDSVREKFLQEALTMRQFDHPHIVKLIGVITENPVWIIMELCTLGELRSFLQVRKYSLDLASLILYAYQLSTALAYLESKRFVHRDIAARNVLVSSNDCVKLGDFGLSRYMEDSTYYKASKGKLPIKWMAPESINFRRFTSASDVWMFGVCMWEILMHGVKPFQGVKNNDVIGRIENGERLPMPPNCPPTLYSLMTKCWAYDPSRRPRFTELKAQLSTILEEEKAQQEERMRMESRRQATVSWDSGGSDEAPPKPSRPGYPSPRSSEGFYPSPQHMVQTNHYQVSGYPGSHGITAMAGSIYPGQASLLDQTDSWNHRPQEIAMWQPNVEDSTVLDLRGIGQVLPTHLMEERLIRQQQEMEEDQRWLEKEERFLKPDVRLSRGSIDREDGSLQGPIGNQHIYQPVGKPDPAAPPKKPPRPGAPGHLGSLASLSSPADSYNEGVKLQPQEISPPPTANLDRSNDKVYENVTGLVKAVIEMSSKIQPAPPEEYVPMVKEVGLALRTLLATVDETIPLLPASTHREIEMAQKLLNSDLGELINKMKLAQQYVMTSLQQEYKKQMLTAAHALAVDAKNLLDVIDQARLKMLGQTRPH
Assay: in vitro FAK ELISA kinase assay
Assay type: biochemical
Conditions: compound 10 uM; ATP 2 uM; read-out: FAK % Inhib ave: 10 uM
result-type: inhibition at 10 µM (%)
Give a bare numeral; the unit % is implied.

Qu. Tell me its inhibition at 10 µM given CCN(CC)CCNC(=O)c1ccc(Nc2ncc3nnn([C@@H](CO)[C@@H](O)c4ccccc4)c3n2)cc1 as the entry.
Ans. 15

Qu. Tell me its inhibition at 10 µM given O=C(NCCCN1CCCC1=O)c1cccc(Nc2ncc3nnn(-c4ccc5c(c4)CCC5)c3n2)c1 as the entry.
Ans. 33.9

Qu. Tell me its inhibition at 10 µM given CCN(CC)CCNC(=O)c1ccc(Nc2ncc3nnn(-c4cc[nH]n4)c3n2)cc1 as the entry.
Ans. 87.2

Qu. Tell me its inhibition at 10 µM given O=C(NCCCN1CCCC1)c1ccc(Nc2ncc3nnn(-c4ccc5c(c4)CCC5)c3n2)cc1 as the entry.
Ans. 77.9

###

Molecular target: Focal Adhesion Kinase (full-length Flag-tagged human FAK) (Homo sapiens)
Construct: a purified recombinant full-length Flag-tagged human FAK protein; Flag; made in house; host or cells: baculovirus infected insect cells
Experiment: in vitro FAK ELISA kinase assay
Type: biochemical
Conditions: compound 10 uM; ATP 2 uM; read-out: FAK % Inhib ave: 10 uM
Assign class by inhibition at 10 µM: not lower than 50% means 1; lower than 50% means 0.

Qu. Is it the case that COc1ccc(-n2nnc3cnc(Nc4ccc(OCC(O)CN(C)C)cc4)nc32)cc1OC (centres unmarked) has inhibition at 10 µM reaching or exceeding 50%?
Ans. 1

Qu. Is it the case that CN(C)CC(O)COc1ccc(Nc2ncc3nnn(-c4ccccc4)c3n2)cc1 (centres unmarked) has inhibition at 10 µM reaching or exceeding 50%?
Ans. 1

Qu. Is it the case that CN(C)CC(O)COc1ccc(Nc2ncc3nnn(C4CCC(C(=O)O)CC4)c3n2)cc1 (centres unmarked) has inhibition at 10 µM reaching or exceeding 50%?
Ans. 0

Qu. Is it the case that CCN(CC)CCNC(=O)c1ccc(Nc2ncc3nnn(-c4ccc(C(=O)NCCN(CC)CC)cc4)c3n2)cc1 has inhibition at 10 µM reaching or exceeding 50%?
Ans. 0

Qu. Is it the case that CCCCNS(=O)(=O)c1cccc(Nc2ncc3nnn(Cc4ccccc4)c3n2)c1 has inhibition at 10 µM reaching or exceeding 50%?
Ans. 0

Qu. Is it the case that CCN(CC)CCNC(=O)c1ccc(Nc2ncc3nnn(Cc4nc5ccccc5[nH]4)c3n2)cc1 has inhibition at 10 µM reaching or exceeding 50%?
Ans. 0

Qu. Is it the case that CCOC(=O)c1cccc(Nc2ncc3nnn(-c4ccc5c(c4)CCC5)c3n2)c1 has inhibition at 10 µM reaching or exceeding 50%?
Ans. 0

Qu. Is it the case that CN(C)CC(O)COc1ccc(Nc2ncc3nnn(-c4ccc5c(c4)Cc4ccccc4-5)c3n2)cc1 (centres unmarked) has inhibition at 10 µM reaching or exceeding 50%?
Ans. 1

###

I'd be grateful if you could share measured inhibition at 10 µM for these entries.
Molecular target: Focal Adhesion Kinase (full-length Flag-tagged human FAK) (Homo sapiens, UniProt Q05397)
Construct: a purified recombinant full-length Flag-tagged human FAK protein; Flag; made in house; host or cells: baculovirus infected insect cells
Test: in vitro FAK ELISA kinase assay
Assay type: biochemical
Settings: compound 10 uM; ATP 2 uM; read-out: FAK % Inhib ave: 10 uM
Give a bare numeral; the unit % is implied.

Qu. Tell me its inhibition at 10 µM given CN(C1CCCCC1)S(=O)(=O)c1ccccc1Nc1ncc2nnn(-c3ccc(N4CCN(Cc5ccccc5)CC4)cc3)c2n1 as the entry.
Ans. 10.8

Qu. Tell me its inhibition at 10 µM given CNC(=O)c1cccc(Nc2ncc3nnn(-c4cccc(-c5ccnc(C)n5)c4)c3n2)c1 as the entry.
Ans. -7

Qu. Tell me its inhibition at 10 µM given CCN(CC)CCNC(=O)c1ccc(Nc2ncc3nnn(-c4ccc5c(c4)CCC5)c3n2)cc1 as the entry.
Ans. 98.9

Qu. Tell me its inhibition at 10 µM given Cc1nccc(-c2cccc(-n3nnc4cnc(Nc5ccc(-c6csnn6)cc5)nc43)c2)n1 as the entry.
Ans. -1.2

Qu. Tell me its inhibition at 10 µM given CCCCNS(=O)(=O)c1cccc(Nc2ncc3nnn(-c4cccc(S(=O)(=O)NCCCC)c4)c3n2)c1 as the entry.
Ans. 7.44

Qu. Tell me its inhibition at 10 µM given CN(C)CC(O)COc1ccc(Nc2ncc3nnn(-c4ccc(N5CCOCC5)cc4)c3n2)cc1 (stereo not drawn) as the entry.
Ans. 50.5

Qu. Tell me its inhibition at 10 µM given OC1CCN(CCCOc2ccc(Nc3ncc4nnn(-c5ccc6c(c5)CCC6)c4n3)cc2)C1 (stereo not drawn) as the entry.
Ans. 90.8

Qu. Tell me its inhibition at 10 µM given CCN(CC)CCCOc1ccc(Nc2ncc3nnn(-c4ccc5c(c4)CCC5)c3n2)cc1 as the entry.
Ans. 81.5

Qu. Tell me its inhibition at 10 µM given CN(C)CC(O)COc1ccc(Nc2ncc3nnn(-c4ccc(C5CCCCC5)cc4)c3n2)cc1 (stereo not drawn) as the entry.
Ans. 80.5

###

Biological target: Focal Adhesion Kinase (full-length Flag-tagged human FAK) (Homo sapiens)
Construct: a purified recombinant full-length Flag-tagged human FAK protein; Flag; made in house; host or cells: baculovirus infected insect cells
Experiment: in vitro FAK ELISA kinase assay
Type: biochemical
Conditions: compound 10 uM; ATP 2 uM; read-out: FAK % Inhib ave: 10 uM
Note that class boundaries on inhibition at 10 µM are LOW = under 10%, MID = from 10% up to 50%, HIGH = 50% and over

Qu. For O=C(NCCN1CCOCC1)c1ccc(Nc2ncc3nnn(-c4ccc5c(c4)CCC5)c3n2)cc1 [Compound 76] , which inhibition at 10 µM bin applies?
Ans. MID

Qu. For CNC(=O)c1cccc(-n2nnc3cnc(Nc4cccc(-c5ccccc5)c4)nc32)c1 [Compound 41] , which inhibition at 10 µM bin applies?
Ans. LOW

Qu. For CCN(CC)CCNC(=O)c1ccc(Nc2ncc3nnn(Cc4ccc(N(C)C)cc4)c3n2)cc1 [Compound 69] , which inhibition at 10 µM bin applies?
Ans. MID

Qu. For CN(C)CCCOc1ccc(Nc2ncc3nnn(-c4ccc5c(c4)CCC5)c3n2)cc1 [Compound 4] , which inhibition at 10 µM bin applies?
Ans. HIGH

Qu. For CN(Cc1ccccc1Nc1ncc2nnn(-c3ccc4c(c3)CCC4)c2n1)C1CCCCC1 [Compound 18] , which inhibition at 10 µM bin applies?
Ans. MID

Qu. For CCN(CC)CCNC(=O)c1ccc(Nc2ncc3nnn(-c4cccc(-c5cnco5)c4)c3n2)cc1 [Compound 84] , which inhibition at 10 µM bin applies?
Ans. MID

Qu. For c1ccc(-c2cccc(Nc3ncc4nnn(-c5ccc(-c6csnn6)cc5)c4n3)c2)cc1 [Compound 38] , which inhibition at 10 µM bin applies?
Ans. LOW

Qu. For CN1CCN(CCCNC(=O)c2cccc(Nc3ncc4nnn(-c5ccc6c(c5)CCC6)c4n3)c2)CC1 [Compound 81] , which inhibition at 10 µM bin applies?
Ans. HIGH

Qu. For c1ccc(-c2cccc(Nc3ncc4nnn(-c5ccc6c(c5)CCC6)c4n3)c2)cc1 [Compound 23] , which inhibition at 10 µM bin applies?
Ans. MID

Qu. For c1cc(Nc2ncc3nnn(-c4cccc(-c5cnco5)c4)c3n2)cc(-c2cnco2)c1 [Compound 85] , which inhibition at 10 µM bin applies?
Ans. MID

Qu. For CCN(CC)CCNC(=O)c1ccc(Nc2ncc3nnn(C4CCCC4)c3n2)cc1 [Compound 68] , which inhibition at 10 µM bin applies?
Ans. HIGH

###

Target: CAK complex (human Cdk7, human Cyclin H, MAT-1) (Homo sapiens, UniProt P50613)
Construct: made in house; host or cells: SF-900 insect cells co-infected with Flag-Cdk7 and Bab-Cyclin H baculoviruses
Sequence (P50613 with tags, fused parts or gaps): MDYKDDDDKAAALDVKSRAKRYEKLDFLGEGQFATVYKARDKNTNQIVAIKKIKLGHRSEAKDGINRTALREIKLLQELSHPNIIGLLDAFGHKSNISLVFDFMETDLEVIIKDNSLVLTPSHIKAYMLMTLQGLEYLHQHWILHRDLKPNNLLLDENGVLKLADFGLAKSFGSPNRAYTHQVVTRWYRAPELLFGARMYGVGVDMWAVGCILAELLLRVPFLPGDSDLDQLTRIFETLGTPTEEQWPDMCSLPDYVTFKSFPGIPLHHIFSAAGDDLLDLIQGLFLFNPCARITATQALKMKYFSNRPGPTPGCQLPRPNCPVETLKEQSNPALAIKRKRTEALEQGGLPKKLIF
Sequence (as listed by the source partner): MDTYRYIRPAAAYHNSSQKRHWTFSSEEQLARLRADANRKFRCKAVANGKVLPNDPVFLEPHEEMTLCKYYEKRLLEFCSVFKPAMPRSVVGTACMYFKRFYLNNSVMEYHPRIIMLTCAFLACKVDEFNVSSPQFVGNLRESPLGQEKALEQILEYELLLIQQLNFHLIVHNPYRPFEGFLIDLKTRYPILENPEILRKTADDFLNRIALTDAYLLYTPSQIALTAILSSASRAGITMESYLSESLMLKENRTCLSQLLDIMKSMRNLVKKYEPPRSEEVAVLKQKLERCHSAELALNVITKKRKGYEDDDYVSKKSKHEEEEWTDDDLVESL
Assay: in vitro time-resolved-fluorescence assay for the CAK kinase activity
Format: biochemical
Conditions: compound 20 uM; read-out: CAK % inhib; 20 uM
Protocol: Cyclin Dependent Kinase Activating Kinase (CAK) is a complex of proteins that phosphorylates a well-conserved threonine (Thr) residue in all mammalian cyclin dependent kinases (cdks). The CAK complex can also phosphorylate several components of the transcriptional machinery, such as the C-terminal domain (CTD) of RNA polymerase II in the TFIIH transcription complex. […] The time-resolved-fluorescence assay for the CAK kinase activity is performed as follows. […]
Assign class by inhibition at 20 µM: not lower than 20% means yes; lower than 20% means no.

Qu. Is it the case that CN(C)CC(O)COc1ccc(Nc2ncc3nnn(-c4ccc5c(c4)Cc4ccccc4-5)c3n2)cc1 (stereo not shown) has inhibition at 20 µM reaching or exceeding 20%?
Ans. yes

Qu. Is it the case that CCOP(=O)(Cc1ccc(Nc2ncc3nnn(-c4ccc5c(c4)CCC5)c3n2)cc1)OCC has inhibition at 20 µM reaching or exceeding 20%?
Ans. yes

Qu. Is it the case that c1ccc(CN2CCN(c3ccc(Nc4ncc5nnn(Cc6ccccc6)c5n4)cc3)CC2)cc1 has inhibition at 20 µM reaching or exceeding 20%?
Ans. yes

Qu. Is it the case that CN(C)CC(O)COc1ccc(Nc2ncc3nnn(C4CCCC(C(=O)O)C4)c3n2)cc1 (stereo not shown) has inhibition at 20 µM reaching or exceeding 20%?
Ans. yes

Qu. Is it the case that CCN(CC)CCNC(=O)c1ccc(Nc2ncc3nnn(Cc4nc5ccccc5[nH]4)c3n2)cc1 has inhibition at 20 µM reaching or exceeding 20%?
Ans. yes

Qu. Is it the case that c1cc(-c2csnn2)ccc1Nc1ncc2nnn(-c3ccc4c(c3)CCC4)c2n1 has inhibition at 20 µM reaching or exceeding 20%?
Ans. no

Qu. Is it the case that CN(C)CC(O)COc1ccc(Nc2ncc3nnn(-c4ccc(N5CCOCC5)cc4)c3n2)cc1 (stereo not shown) has inhibition at 20 µM reaching or exceeding 20%?
Ans. yes

Qu. Is it the case that O=C(NCCN1CCOCC1)c1cccc(Nc2ncc3nnn(-c4ccc5c(c4)CCC5)c3n2)c1 has inhibition at 20 µM reaching or exceeding 20%?
Ans. yes

Qu. Is it the case that CCN(CC)CCNC(=O)c1ccc(Nc2ncc3nnn(Cc4ccccc4)c3n2)cc1 has inhibition at 20 µM reaching or exceeding 20%?
Ans. yes

Qu. Is it the case that CN(C)CC(O)COc1ccc(Nc2ncc3nnn(-c4ccc5ncsc5c4)c3n2)cc1 (stereo not shown) has inhibition at 20 µM reaching or exceeding 20%?
Ans. yes

Qu. Is it the case that CCOC(=O)/C=C/c1ccc(Nc2ncc3nnn(-c4ccc5c(c4)CCC5)c3n2)cc1 has inhibition at 20 µM reaching or exceeding 20%?
Ans. yes

Qu. Is it the case that CCN(CC)CCNC(=O)c1ccc(-n2nnc3cnc(Nc4cccc(-c5nnn[nH]5)c4)nc32)cc1 has inhibition at 20 µM reaching or exceeding 20%?
Ans. yes

Qu. Is it the case that c1ccc(-c2cccc(Nc3ncc4nnn(-c5ccc(-c6csnn6)cc5)c4n3)c2)cc1 has inhibition at 20 µM reaching or exceeding 20%?
Ans. yes

Qu. Is it the case that CCN(CC)CCNC(=O)c1ccc(Nc2ncc3nnn(C4CCCC4)c3n2)cc1 has inhibition at 20 µM reaching or exceeding 20%?
Ans. yes

Qu. Is it the case that CNC(=O)c1cccc(Nc2ncc3nnn(-c4cccc(-c5ccnc(C)n5)c4)c3n2)c1 has inhibition at 20 µM reaching or exceeding 20%?
Ans. no

Qu. Is it the case that O=C(NCCN1CCOCC1)c1ccc(Nc2ncc3nnn(-c4ccc5c(c4)CCC5)c3n2)cc1 has inhibition at 20 µM reaching or exceeding 20%?
Ans. no

Qu. Is it the case that CCN(CC)CCNC(=O)c1ccc(Nc2ncc3nnn(Cc4ccc(N(C)C)cc4)c3n2)cc1 has inhibition at 20 µM reaching or exceeding 20%?
Ans. no

Qu. Is it the case that CCCCNS(=O)(=O)c1cccc(Nc2ncc3nnn(-c4cccc(S(=O)(=O)NCCCC)c4)c3n2)c1 has inhibition at 20 µM reaching or exceeding 20%?
Ans. no

Qu. Is it the case that c1cc(Nc2ncc3nnn(C4CCCC4)c3n2)cc(-c2nnn[nH]2)c1 has inhibition at 20 µM reaching or exceeding 20%?
Ans. yes

Qu. Is it the case that Cc1nccc(-c2cccc(-n3nnc4cnc(Nc5ccc(-c6csnn6)cc5)nc43)c2)n1 has inhibition at 20 µM reaching or exceeding 20%?
Ans. no

Qu. Is it the case that CCN(CC)CCNC(=O)c1ccc(Nc2ncc3nnn(-c4cccc(-c5cnco5)c4)c3n2)cc1 has inhibition at 20 µM reaching or exceeding 20%?
Ans. no

Qu. Is it the case that CCN(CC)CCNC(=O)c1ccc(-n2nnc3cnc(Nc4ccc(N5CCN(Cc6ccccc6)CC5)cc4)nc32)cc1 has inhibition at 20 µM reaching or exceeding 20%?
Ans. yes
